Tested on: HIPK4
Conditions: concentration: 1 μM, replicates: in singlicate; n = 1;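 further: KINOMEscan kinase panel screen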
Threshold-based label: %Inh under 10% gives y, %Inh not under 10% gives n.

Solved cases (3 shown):
{"compound": "Cc1ccc(C(=O)N2CC[C@@H](O)C2)cc1-n1c(C)cc(OCc2ccc(F)cc2F)c(Br)c1=O", "labelValue": "y"}
{"compound": "COC(=O)Nc1nc2cc(Oc3ccc(NC(=O)Nc4cc(C(F)(F)F)ccc4F)cn3)ccc2[nH]1.Cl.Cl [GW681170]", "labelValue": "n"}
{"compound": "Cn1cc(-c2[nH]c3cc(NC(=O)[C@H](N)C4CCCCC4)cc4c3c2C=NNC4=O)cn1", "labelValue": "n"}

Request: Bench note: check whether Clc1ccc(-c2nn3ncccc3c2-c2ccnc(Nc3ccc4c(c3)OCCO4)n2)cc1 [GW829116] shows %Inh below 10%
Response: y

Request: Determine if CN1CCN(CCCNc2nccc(-c3c(-c4ccc(F)cc4)nn4cc(C(F)(F)F)ccc34)n2)CC1 [GW621581] shows %Inh strictly lower than 10%.
Response: y

Request: Dear colleague, could you confirm whether %Inh of FC(F)(F)c1ccc(/C=C/c2cncnc2Nc2ccc3[nH]c(Cc4ccccc4)nc3c2)cc1 [GW709199] falls below 10%? Thanks.
Response: n

Request: Is it true that %Inh reported for CCn1c(-c2nonc2N)nc2c(C#CC(C)(C)O)ncc(OCCCCN)c21.O=C(O)C(F)(F)F.O=C(O)C(F)(F)F [GSK507274] is less than 10%?
Response: y

Request: hey, is %Inh for O=C(Nc1ccccc1F)NC1CCN(c2ccnc(Nc3ccc(F)cc3)n2)CC1 [GSK1379800] lower than 10% or not?
Response: y

---

Tested on: MEK3
Construct: gene MAP2K3
Conditions: concentration: 1 μM, replicates: in singlicate; n = 1
outcomeMeasure: %Inh (%)
I only need the number, in %, no unit after it.

The following compounds have reported results that may help.
{"compound": "Cc1ccc(C)c(NC(=O)NC2CCN(c3ccnc(Nc4ccc(F)cc4)n3)C2)c1 (centres unmarked) [GSK1379720]", "unit": "%", "%Inh": 0}
{"compound": "c1ccc(Oc2ccc(Nc3ccnc4cc(-c5ccc(CNCCN6CCOCC6)o5)ccc34)cc2)nc1 [GW567145]", "unit": "%", "%Inh": 0}

Request: Quick check: %Inh of COC(=O)Nc1nc2cc(Oc3ccc(NC(=O)Nc4cc(C(F)(F)F)ccc4F)cn3)ccc2[nH]1.Cl.Cl [GW681170] ?
Response: 7

Request: # get_value(readout='%Inh', item= FC(F)(F)c1ccc(/C=C/c2cncnc2Nc2ccc3[nH]c(Cc4ccccc4)nc3c2)cc1 [GW709199] )
Response: 0

Request: Param item = COc1cccc(-c2ccc3c(NC(=O)C4CC4)n[nH]c3n2)c1 [SB-710903] ; retrieve measured %Inh.
Response: 0

---

System: LOK
Construct: gene STK10
Settings: concentration: 1 μM, replicates: in singlicate; n = 1
%Inh reference
State just the number; it will be interpreted in %.

Example compounds with recorded %Inh:
{"chemicalString": "C[C@@H](Oc1cc(-n2cnc3cc(-c4ccnc(NCCS(C)(=O)=O)c4)ccc32)sc1C(N)=O)c1ccccc1Cl", "%Inh (%)": 99.1}
{"chemicalString": "Cc1ccc(F)c(C(=O)Nc2cccc(-c3nn4ccccc4c3-c3ccnc(Nc4cccc(F)c4)n3)c2)c1F", "%Inh (%)": 98.5}
{"chemicalString": "O=C(Nc1cccc(-c2nn3ccccc3c2-c2ccnc(Nc3cccc(F)c3)n2)c1)c1c(F)ccc(F)c1Cl", "%Inh (%)": 97.6}
{"chemicalString": "COc1ccc(-c2coc3ccc(-c4nnc(SCc5ccc(OC)c(C(F)(F)F)c5)o4)cc23)cc1", "%Inh (%)": 24}
{"chemicalString": "O=C(Nc1n[nH]c2nc(-c3ccc(O)cc3)ccc12)C1CC1", "%Inh (%)": 27}

Request: So what's the measured %Inh for this one? Cl.NC(=O)c1cccc(Nc2nccc(Nc3ccc(Oc4c(Cl)cccc4Cl)c(Cl)c3)n2)c1
Response: 49

Request: Would you mind telling me what %Inh value was observed for Cl.c1ccc(-c2ccc3c(Nc4ccc5[nH]ccc5c4)ccnc3c2)nc1 ?
Response: 51

---

System: MKK7
Conditions: concentration: 1 μM, replicates: in singlicate; n = 1
Note to self: values exactly at 2% are Y. So %Inh at or above 2% is Y, below is N.

Look over these answered cases.
{"compound": "O=C(Nc1cccc(-c2nn3ccccc3c2-c2ccnc(Nc3cccc(F)c3)n2)c1)c1c(F)ccc(F)c1Cl", "assaySystem": "MKK7", "labelValue": "N"}
{"compound": "COc1cccc(NC(=O)NC2CCN(c3ccnc(Nc4cc(OC)c(OC)c(OC)c4)n3)C2)c1 (stereo not shown)", "assaySystem": "MKK7", "labelValue": "N"}
{"compound": "Fc1ccc(-c2ncn(C3CCNCC3)c2-c2ccnc(Oc3ccc(-c4ccccc4)cc3)n2)cc1", "assaySystem": "MKK7", "labelValue": "Y"}

Request: Does Nc1ncc(-c2ccc3nccc(-c4ccncc4)c3c2)cc1S(=O)(=O)N1CCOCC1 have a reported %Inh of at least 2%?
Response: Y

Request: Quick check: does O=C(Nc1cccc(-c2nn3ncccc3c2-c2ccnc(Nc3ccccc3)n2)c1)c1c(F)cccc1F have %Inh greater than or equal to 2%?
Response: Y

Request: Is it the case that COc1cc(Nc2nccc(-c3c(-c4cccc(NC(=O)c5c(F)cccc5F)c4)nn4ccccc34)n2)cc(OC)c1OC has %Inh reaching or exceeding 2%?
Response: Y

---

Tested on: MEK5
Construct: gene MAP2K5
Details: concentration: 1 μM, replicates: in singlicate; n = 1
%Inh reference
Your answer should be a plain number; it is taken to be in %.

Below, 6 molecules whose answers are already recorded.
{"molecule": "FC(F)(F)c1ccc(/C=C/c2cncnc2Nc2ccc3[nH]c(Cc4ccccc4)nc3c2)cc1", "outcomeMeasure": "%Inh", "observedValue": 32}
{"molecule": "CN1CCN(Cc2cccc(-c3ccc4c(Nc5ccc(Oc6ccccc6)cc5)ccnc4c3)c2)CC1", "outcomeMeasure": "%Inh", "observedValue": 100}
{"molecule": "Cl.Cl.NCC(NCc1ccc(-c2ccnc3[nH]ccc23)s1)c1ccccc1 (centres unmarked)", "outcomeMeasure": "%Inh", "observedValue": 43}
{"molecule": "O=C(Nc1cccc(-c2nn3ccccc3c2-c2ccnc(Nc3cccc(C(F)(F)F)c3)n2)c1)c1c(F)cccc1F", "outcomeMeasure": "%Inh", "observedValue": 80}
{"molecule": "CSc1cccc2c(-c3ccncn3)c(-c3ccc(F)cc3)nn12", "outcomeMeasure": "%Inh", "observedValue": 15}
{"molecule": "O=C(Nc1ccccc1F)NC1CCN(c2ccnc(Nc3ccc(F)cc3)n2)CC1", "outcomeMeasure": "%Inh", "observedValue": 13}

Request: // query %Inh value for entry O=C(Nc1n[nH]c2nc(-c3ccc(O)cc3)ccc12)C1CC1
Response: 81

Request: What %Inh value was documented for this molecule, O=C(Nc1cccc(-c2nn3ncccc3c2-c2ccnc(Nc3ccccc3)n2)c1)c1c(F)cccc1F ?
Response: 99.9

Request: Fill blank: measured %Inh of the molecule Cl.Cl.NCC(NC(=O)c1cc(-c2ccccc2)c(-c2ccnc3[nH]ccc23)s1)c1ccccc1 (centres unmarked) is ____.
Response: 19

Request: # query: %Inh of entry COc1ccc(Nc2nccc(N3CCC(NC(=O)Nc4cccc(OC)c4)C3)n2)cc1 (centres unmarked)
Response: 46

Request: Fill in: %Inh of O=C(Nc1cccc(-c2nn3ccccc3c2-c2ccnc(Nc3cccc(F)c3)n2)c1)c1c(F)ccc(F)c1Cl is ___
Response: 88

Request: Quick one: %Inh of Oc1cc(Nc2ccnc3cc(I)ccc23)ccc1F ?
Response: 96.5

Request: Item under review: c1ccc(Oc2ccc(Nc3ccnc4cc(-c5ccc(CNCCN6CCOCC6)o5)ccc34)cc2)nc1 . Reported %Inh?
Response: 100

Request: Report %Inh for O=C(O)C(F)(F)F.O=C(O)C(F)(F)F.O=c1[nH]ccc2nc(N[C@@H]3CCCNC3)nc(Nc3ccc(S(=O)(=O)N4CCOCC4)cc3)c12 please.
Response: 100

Request: Given the entry CCn1c(-c2nonc2N)nc2c(C#CC(C)(C)O)nc(OC[C@H](N)c3ccccc3)cc21 , report its measured %Inh.
Response: 0

Request: Consider the molecule shown here: Cl.Cl.NCC(C(=O)Nc1cc(Br)c(-c2ccnc3[nH]ccc23)s1)c1ccccc1 (centres unmarked) What is its recorded %Inh?
Response: 20

Request: Recorded %Inh for NCCCC(NC(=O)c1cc(Br)c(-c2ccnc3[nH]ccc23)s1)c1ccccc1.O=C(O)C(F)(F)F.O=C(O)C(F)(F)F (centres unmarked) , please?
Response: 7

Request: // returns reported %Inh for input CCS(=O)(=O)c1ccc(OC)c(Nc2nccc(-c3c(-c4cccc(NC(=O)c5c(F)cccc5F)c4)nn4ncccc34)n2)c1
Response: 99.6

Request: For CN(C)Cc1ccc(-c2ccc3c(Nc4ccc(Oc5ccccn5)cc4)ccnc3c2)o1 , what is its reported %Inh?
Response: 100

Request: For COc1ccc(-c2coc3ccc(-c4nnc(SCc5ccc(OC)c(C(F)(F)F)c5)o4)cc23)cc1 , what is its reported %Inh?
Response: 4

Request: Data request, read-out %Inh, for COc1ccc(Nc2nccc(NCCNC(=O)c3cc4ccccc4s3)n2)cc1
Response: 33
